Taken from ChEMBL document CHEMBL1129258.

- STUDY_TARGET: DNA gyrase (Staphylococcus aureus) (UniProt P0A0K8+P20831)
- Sequence (P0A0K8 2-644 limits assumed): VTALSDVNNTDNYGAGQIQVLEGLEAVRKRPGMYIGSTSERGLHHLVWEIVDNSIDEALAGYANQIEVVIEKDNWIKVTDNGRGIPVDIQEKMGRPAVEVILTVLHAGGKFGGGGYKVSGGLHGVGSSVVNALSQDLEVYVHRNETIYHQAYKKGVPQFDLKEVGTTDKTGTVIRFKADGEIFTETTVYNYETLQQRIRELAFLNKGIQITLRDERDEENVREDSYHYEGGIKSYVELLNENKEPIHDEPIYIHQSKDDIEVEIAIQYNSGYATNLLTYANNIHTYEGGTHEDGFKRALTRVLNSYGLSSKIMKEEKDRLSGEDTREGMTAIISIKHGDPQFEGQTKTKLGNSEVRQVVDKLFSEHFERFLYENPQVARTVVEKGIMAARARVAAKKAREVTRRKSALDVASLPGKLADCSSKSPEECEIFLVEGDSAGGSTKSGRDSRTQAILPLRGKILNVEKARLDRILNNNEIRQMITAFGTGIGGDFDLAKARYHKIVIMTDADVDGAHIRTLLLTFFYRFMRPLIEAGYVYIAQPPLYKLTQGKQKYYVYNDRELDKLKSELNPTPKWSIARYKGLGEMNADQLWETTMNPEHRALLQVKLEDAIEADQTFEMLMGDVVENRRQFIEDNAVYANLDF
- Sequence (P20831 whole entry partner): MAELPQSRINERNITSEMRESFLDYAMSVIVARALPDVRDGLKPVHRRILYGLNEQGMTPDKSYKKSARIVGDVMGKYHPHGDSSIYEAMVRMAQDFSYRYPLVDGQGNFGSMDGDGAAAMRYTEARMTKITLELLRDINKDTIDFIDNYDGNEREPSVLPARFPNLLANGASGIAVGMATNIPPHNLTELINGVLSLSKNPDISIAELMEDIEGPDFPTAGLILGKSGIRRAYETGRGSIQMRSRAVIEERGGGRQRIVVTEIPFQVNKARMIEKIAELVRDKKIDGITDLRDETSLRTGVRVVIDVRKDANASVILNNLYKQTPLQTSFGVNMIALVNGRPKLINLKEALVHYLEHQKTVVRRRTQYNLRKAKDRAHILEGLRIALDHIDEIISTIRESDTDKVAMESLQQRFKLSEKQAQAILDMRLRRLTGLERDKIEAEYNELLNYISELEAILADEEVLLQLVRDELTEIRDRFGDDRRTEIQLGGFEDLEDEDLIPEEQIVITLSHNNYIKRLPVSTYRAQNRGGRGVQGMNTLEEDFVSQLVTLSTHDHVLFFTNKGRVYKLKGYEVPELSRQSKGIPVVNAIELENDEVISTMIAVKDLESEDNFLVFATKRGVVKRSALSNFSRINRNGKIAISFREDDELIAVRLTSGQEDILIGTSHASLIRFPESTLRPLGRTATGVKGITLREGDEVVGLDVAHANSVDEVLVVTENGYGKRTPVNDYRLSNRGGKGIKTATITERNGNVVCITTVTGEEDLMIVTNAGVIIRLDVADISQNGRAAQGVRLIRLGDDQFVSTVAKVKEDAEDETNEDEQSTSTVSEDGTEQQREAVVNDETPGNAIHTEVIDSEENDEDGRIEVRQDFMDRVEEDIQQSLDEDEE
- TEST_PROTOCOL: In vivo efficacy against Staphylococcus aureus NCTC-10649M after oral administration
- Format: functional, organism-based
REPORTED_METRIC: log10(ED50) (log10 of the value in mg/kg)

COMPOUND	STUDY_TARGET	log10(ED50)
CC(NC(=O)C(C)NC1CCN(c2nc3c(-c4ccc(F)cc4F)cc(C(=O)O)c(=O)n3cc2F)C1)C(=O)O (stereo not drawn)	DNA gyrase (Staphylococcus aureus) (UniProt P0A0K8+P20831)	0.48
Cc1c(N2C[C@H]3CCCN[C@H]3C2)c(F)cn2c(=O)c(C(=O)O)cc(C3CC3)c12 (single isomer, unassigned)	DNA gyrase (Staphylococcus aureus) (UniProt P0A0K8+P20831)	1.47
NC1CCN(c2c(F)cn3c(=O)c(C(=O)O)cc(C4CC4)c3c2F)C1 (stereo not drawn)	DNA gyrase (Staphylococcus aureus) (UniProt P0A0K8+P20831)	1.16
Cc1c(N2CC[C@@H]3CNC[C@@H]32)c(F)cn2c(=O)c(C(=O)O)cc(C3CC3)c12	DNA gyrase (Staphylococcus aureus) (UniProt P0A0K8+P20831)	0.56
Cc1c(N2CC[C@@H](O)C2)c(F)cn2c(=O)c(C(=O)O)cc(C3CC3)c12	DNA gyrase (Staphylococcus aureus) (UniProt P0A0K8+P20831)	1.05
Cc1c(N2C[C@@H]3CCCN[C@@H]3C2)c(F)cn2c(=O)c(C(=O)O)cc(C3CC3)c12 (stereo in doubt; (S,S)45n)	DNA gyrase (Staphylococcus aureus) (UniProt P0A0K8+P20831)	0.40
Cc1c(N2CC[C@H](O)C2)c(F)cn2c(=O)c(C(=O)O)cc(C3CC3)c12	DNA gyrase (Staphylococcus aureus) (UniProt P0A0K8+P20831)	0.72
Cc1c(N2C[C@@H]3CCCN[C@@H]3C2)c(F)cn2c(=O)c(C(=O)O)cc(C3CC3)c12 (stereo in doubt; 45n)	DNA gyrase (Staphylococcus aureus) (UniProt P0A0K8+P20831)	0.49
NC1CCN(c2c(F)cn3c(=O)c(C(=O)O)cc(C4CC4)c3c2Cl)C1 (stereo not drawn)	DNA gyrase (Staphylococcus aureus) (UniProt P0A0K8+P20831)	0.76
Cc1c(N2CCC(O)C2)c(F)cn2c(=O)c(C(=O)O)cc(C3CC3)c12 (stereo not drawn)	DNA gyrase (Staphylococcus aureus) (UniProt P0A0K8+P20831)	1.18
CC(NC1CCN(c2nc3c(-c4ccc(F)cc4F)cc(C(=O)O)c(=O)n3cc2F)C1)C(=O)O (stereo not drawn)	DNA gyrase (Staphylococcus aureus) (UniProt P0A0K8+P20831)	1.16
Cc1c(N2C[C@@H]3CCN[C@@H]3C2)c(F)cn2c(=O)c(C(=O)O)cc(C3CC3)c12 (stereo in doubt; 45o)	DNA gyrase (Staphylococcus aureus) (UniProt P0A0K8+P20831)	0.70
Cc1c(N2CCC(N)C2)c(F)cn2c(=O)c(C(=O)O)cc(C3CC3)c12 (stereo not drawn)	DNA gyrase (Staphylococcus aureus) (UniProt P0A0K8+P20831)	0.61
Cc1c(N2C[C@@H](C)N[C@@H](C)C2)c(F)cn2c(=O)c(C(=O)O)cc(C3CC3)c12	DNA gyrase (Staphylococcus aureus) (UniProt P0A0K8+P20831)	0.68
Cc1c(N2CCC(N(C)C)C2)c(F)cn2c(=O)c(C(=O)O)cc(C3CC3)c12 (stereo not drawn)	DNA gyrase (Staphylococcus aureus) (UniProt P0A0K8+P20831)	1.40
Cc1c(N2CC[C@H]([C@@H](C)N)C2)c(F)cn2c(=O)c(C(=O)O)cc(C3CC3)c12	DNA gyrase (Staphylococcus aureus) (UniProt P0A0K8+P20831)	0.08
Cc1c(N2CC[C@@H]([C@H](C)N)C2)c(F)cn2c(=O)c(C(=O)O)cc(C3CC3)c12	DNA gyrase (Staphylococcus aureus) (UniProt P0A0K8+P20831)	0.86
Cc1c(N2CC[C@@]3(C[C@H]3N)C2)c(F)cn2c(=O)c(C(=O)O)cc(C3CC3)c12	DNA gyrase (Staphylococcus aureus) (UniProt P0A0K8+P20831)	0.80
Cc1c(N2CC[C@H](N)C2)c(F)cn2c(=O)c(C(=O)O)cc(C3CC3)c12	DNA gyrase (Staphylococcus aureus) (UniProt P0A0K8+P20831)	0.53
CC(NC(=O)C(C)N[C@H]1C[C@H](C)N(c2nc3c(-c4ccc(F)cc4F)cc(C(=O)O)c(=O)n3cc2F)C1)C(=O)O (stereo partly drawn)	DNA gyrase (Staphylococcus aureus) (UniProt P0A0K8+P20831)	1.40
